Entries and their normalized growth
PROTOCOL DETAILS: chemical genetic growth profiling, strain panel (AID 1159580);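 note: tested at 20 µM; growth read once vehicle control cultures reached saturation at 30 °C; 1 = growth at the plate median or of vehicle wells; lower values mean less growth of the strain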
CONDITION PARAMETERS: S. cerevisiae deletion strains, growth OD, locus YER002W, strain NOP16, hits give low values
Out of some 5,500 compounds screened, about 2,000 (36%) were called active. Another 18% or so got no clear call; they are omitted. The list shows a part of the results.
OUTCOME MEASURE: normalized growth

>  <MOLECULE>
CN(C(=O)Cc1ccc(Cl)c(Cl)c1)C(CN1CCCC1)c1cccc(OCC(=O)O)c1 (stereo not drawn)

>  <OUTCOME MEASURE>
normalized growth

>  <VALUE>
0.992

$$$$
>  <MOLECULE>
COC(=O)C(C)(N)Cc1ccc(O)cc1 (stereo not drawn)

>  <OUTCOME MEASURE>
normalized growth

>  <VALUE>
1.01

$$$$
>  <MOLECULE>
CC[C@H]1CN2CCc3cc(OC)c(OC)cc3[C@@H]2C[C@@H]1C[C@H]1NCCc2cc(OC)c(OC)cc21

>  <OUTCOME MEASURE>
normalized growth

>  <VALUE>
1

$$$$
>  <MOLECULE>
Cn1ccc2cc3c(cc21)CCN3C(=O)Nc1cccnc1

>  <OUTCOME MEASURE>
normalized growth

>  <VALUE>
0.999

$$$$
>  <MOLECULE>
CCC(=O)N1CCN(C(=O)c2ccccc2)CC1

>  <OUTCOME MEASURE>
normalized growth

>  <VALUE>
1

$$$$
>  <MOLECULE>
O=C1N=C(O)CN1/N=C\c1ccc(-c2ccc([N+](=O)[O-])cc2)o1

>  <OUTCOME MEASURE>
normalized growth

>  <VALUE>
1

$$$$
>  <MOLECULE>
COc1ccc2c(c1O)-c1cccc3c1[C@@H](C2)N(C)CC3

>  <OUTCOME MEASURE>
normalized growth

>  <VALUE>
1.01

$$$$
>  <MOLECULE>
CNC(CC(=O)O)C(=O)O (stereo not drawn)

>  <OUTCOME MEASURE>
normalized growth

>  <VALUE>
1

$$$$
>  <MOLECULE>
CN(C)CCCO[C@@H]1[C@H]2OC(C)(C)O[C@H]2O[C@@H]1C(O)CO (stereo partly drawn)

>  <OUTCOME MEASURE>
normalized growth

>  <VALUE>
1.02

$$$$
>  <MOLECULE>
COc1ccc(/C=C/C(=O)Nc2ccccc2C(=O)O)cc1OC

>  <OUTCOME MEASURE>
normalized growth

>  <VALUE>
0.985

$$$$
>  <MOLECULE>
O=C(O)CP(=O)(O)O

>  <OUTCOME MEASURE>
normalized growth

>  <VALUE>
1.01

$$$$
>  <MOLECULE>
N=C(N)SCCc1cccc(CCSC(=N)N)c1

>  <OUTCOME MEASURE>
normalized growth

>  <VALUE>
1.02

$$$$
>  <MOLECULE>
CC(N)=NCCC[C@H](N)C(=O)O

>  <OUTCOME MEASURE>
normalized growth

>  <VALUE>
0.997

$$$$
>  <MOLECULE>
NC(=O)c1cnccn1

>  <OUTCOME MEASURE>
normalized growth

>  <VALUE>
1.01

$$$$
>  <MOLECULE>
COC(=O)[C@@H](N)CCCN=C(N)N[N+](=O)[O-]

>  <OUTCOME MEASURE>
normalized growth

>  <VALUE>
0.991

$$$$
>  <MOLECULE>
O=C(OCCN1CCOCC1)C1(c2ccccc2)CCCCC1

>  <OUTCOME MEASURE>
normalized growth

>  <VALUE>
1.01

$$$$
>  <MOLECULE>
O=c1cc(N2CCOCC2)oc2c(-c3ccccc3)cccc12

>  <OUTCOME MEASURE>
normalized growth

>  <VALUE>
1

$$$$
>  <MOLECULE>
CC(N)(Cc1ccc(O)c(O)c1)C(=O)O (stereo not drawn)

>  <OUTCOME MEASURE>
normalized growth

>  <VALUE>
1.01

$$$$
>  <MOLECULE>
CN[C@H](CC(C)C)C(=O)N[C@H]1C(=O)N[C@@H](CC(N)=O)C(=O)N[C@H]2C(=O)N[C@H]3C(=O)N[C@H](C(=O)N[C@H](C(=O)O)c4cc(O)cc(O)c4-c4cc3ccc4O)[C@H](O)c3ccc(c(Cl)c3)Oc3cc2cc(c3O[C@@H]2O[C@H](CO)[C@@H](O)[C@H](O)[C@H]2O[C@H]2C[C@](C)(N)[C@H](O)[C@H](C)O2)Oc2ccc(cc2Cl)[C@H]1O

>  <OUTCOME MEASURE>
normalized growth

>  <VALUE>
1.01

$$$$
>  <MOLECULE>
COCCCCC(=NOCCN)c1ccc(C(F)(F)F)cc1

>  <OUTCOME MEASURE>
normalized growth

>  <VALUE>
1

$$$$
>  <MOLECULE>
CCCN1CCc2cc(O)cc3c2[C@H]1Cc1ccc(O)c(O)c1-3

>  <OUTCOME MEASURE>
normalized growth

>  <VALUE>
1.01

$$$$
>  <MOLECULE>
Nc1nc(N)c2nc(CNc3ccc(C(=O)NC(CCC(=O)O)C(=O)O)cc3)cnc2n1 (stereo not drawn)

>  <OUTCOME MEASURE>
normalized growth

>  <VALUE>
0.993

$$$$
>  <MOLECULE>
Cc1cn([C@H]2C[C@@H](N=[N+]=[N-])[C@@H](CO)O2)c(=O)[nH]c1=O

>  <OUTCOME MEASURE>
normalized growth

>  <VALUE>
0.99

$$$$
>  <MOLECULE>
CCCN1CCOC2c3cc(O)ccc3OCC21 (stereo not drawn)

>  <OUTCOME MEASURE>
normalized growth

>  <VALUE>
1

$$$$
>  <MOLECULE>
CN1CCc2cc(O)cc3c2[C@H]1Cc1ccc(O)c(O)c1-3

>  <OUTCOME MEASURE>
normalized growth

>  <VALUE>
1

$$$$
>  <MOLECULE>
CCCn1c(=O)c2[nH]c(-c3ccc(OCC(=O)NCCN)cc3)nc2n(CCC)c1=O

>  <OUTCOME MEASURE>
normalized growth

>  <VALUE>
0.986

$$$$
>  <MOLECULE>
OC1CCCCC1N1CCC(c2ccccc2)CC1 (stereo not drawn)

>  <OUTCOME MEASURE>
normalized growth

>  <VALUE>
0.992

$$$$
>  <MOLECULE>
CC(Cc1ccc(OCC(=O)O)cc1)NCC(O)c1cccc(Cl)c1 (stereo not drawn)

>  <OUTCOME MEASURE>
normalized growth

>  <VALUE>
1.01

$$$$
>  <MOLECULE>
CCCN(CCC)C(=O)C(CCC(=O)O)NC(=O)c1ccccc1 (stereo not drawn)

>  <OUTCOME MEASURE>
normalized growth

>  <VALUE>
0.986

$$$$
>  <MOLECULE>
CC1Cc2cc3c(cc2C(c2ccc(N)cc2)=NN1)OCO3 (stereo not drawn)

>  <OUTCOME MEASURE>
normalized growth

>  <VALUE>
0.991

$$$$
>  <MOLECULE>
[Li+]

>  <OUTCOME MEASURE>
normalized growth

>  <VALUE>
1

$$$$
>  <MOLECULE>
CC1=C(/C=C/C(C)=C/C=C/C(C)=C/C(=O)Nc2ccc(O)cc2)C(C)(C)CCC1

>  <OUTCOME MEASURE>
normalized growth

>  <VALUE>
1.02

$$$$
>  <MOLECULE>
CC1CN(S(=O)(=O)c2cccc3cnccc23)CCN1 (stereo not drawn)

>  <OUTCOME MEASURE>
normalized growth

>  <VALUE>
1

$$$$
>  <MOLECULE>
C[C@H](Cc1ccc2c(c1)OC(C(=O)O)(C(=O)O)O2)NC[C@H](O)c1cccc(Cl)c1

>  <OUTCOME MEASURE>
normalized growth

>  <VALUE>
0.992

$$$$
>  <MOLECULE>
CN1CCc2cc(NC(=O)Nc3cccnc3)ccc21

>  <OUTCOME MEASURE>
normalized growth

>  <VALUE>
0.996

$$$$
>  <MOLECULE>
CCCN(CCC)CCc1cccc2c1CC(=O)N2

>  <OUTCOME MEASURE>
normalized growth

>  <VALUE>
1.02

$$$$
>  <MOLECULE>
CCCNC(C)C(=O)Nc1ccccc1C (stereo not drawn)

>  <OUTCOME MEASURE>
normalized growth

>  <VALUE>
0.995

$$$$
>  <MOLECULE>
CC(N)=NCCCC[C@@H](N)C(=O)O

>  <OUTCOME MEASURE>
normalized growth

>  <VALUE>
0.994

$$$$
